Reference source: the supplement of paper PMC3545927

Target: furin, P09958;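 also: purified furin at 1:10 enzyme:substrate in 50 mM HEPES pH 7.5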
Sequence (P09958 whole entry): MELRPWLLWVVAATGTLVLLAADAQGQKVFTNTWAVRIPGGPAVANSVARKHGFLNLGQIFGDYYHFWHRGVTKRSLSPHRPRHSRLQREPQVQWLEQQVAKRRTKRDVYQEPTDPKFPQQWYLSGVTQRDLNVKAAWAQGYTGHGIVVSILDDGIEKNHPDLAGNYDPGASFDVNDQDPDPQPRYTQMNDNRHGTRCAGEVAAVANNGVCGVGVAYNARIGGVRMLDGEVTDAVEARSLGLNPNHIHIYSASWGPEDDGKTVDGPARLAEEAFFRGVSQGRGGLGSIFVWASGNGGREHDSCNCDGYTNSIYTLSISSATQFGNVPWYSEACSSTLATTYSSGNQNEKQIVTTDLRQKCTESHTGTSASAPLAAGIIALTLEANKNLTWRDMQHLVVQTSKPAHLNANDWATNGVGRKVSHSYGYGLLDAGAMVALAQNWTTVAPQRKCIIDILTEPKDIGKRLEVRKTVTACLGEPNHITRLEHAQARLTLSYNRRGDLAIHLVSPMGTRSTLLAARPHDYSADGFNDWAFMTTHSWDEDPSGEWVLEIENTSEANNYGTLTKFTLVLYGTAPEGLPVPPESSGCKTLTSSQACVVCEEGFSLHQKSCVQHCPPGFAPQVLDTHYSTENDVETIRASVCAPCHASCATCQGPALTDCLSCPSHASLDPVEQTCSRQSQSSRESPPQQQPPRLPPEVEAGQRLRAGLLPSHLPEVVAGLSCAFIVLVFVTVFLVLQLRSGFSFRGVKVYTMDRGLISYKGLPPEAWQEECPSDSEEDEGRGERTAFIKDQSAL
Assay: furin cleavage Z-score vs untreated control; higher = more cleavage, active = 3.5 or more, inactive = 1 or less, 8 variable residues between constant flanks
Conditions: 7.5 min
The list shows a part of the results. No count for the full screen is at hand.
PROPERTY NAME: furin cleavage Z-score

> print(dat)
               residue.sequence           property.name  result
1   CAMEECSQHSAGNASASA [HC1777]  furin cleavage Z-score     2.1
2  CARSERDVLLAGNASASA [FS-3077]  furin cleavage Z-score    1.87
3   CAANLLWRQEAGNASASA [HC1275]  furin cleavage Z-score    1.65

Now let's try a different one.
So, CAVVPRGVNLAGNASASA [TR7] ? Its furin cleavage Z-score was 1.05
